Measured inhibition values are reported for all entries that follow.
- targetDesc: Rac GTPase-activating protein 1 (Homo sapiens) (UniProt Q9H0H5)
- Sequence (Q9H0H5 whole entry, looked up): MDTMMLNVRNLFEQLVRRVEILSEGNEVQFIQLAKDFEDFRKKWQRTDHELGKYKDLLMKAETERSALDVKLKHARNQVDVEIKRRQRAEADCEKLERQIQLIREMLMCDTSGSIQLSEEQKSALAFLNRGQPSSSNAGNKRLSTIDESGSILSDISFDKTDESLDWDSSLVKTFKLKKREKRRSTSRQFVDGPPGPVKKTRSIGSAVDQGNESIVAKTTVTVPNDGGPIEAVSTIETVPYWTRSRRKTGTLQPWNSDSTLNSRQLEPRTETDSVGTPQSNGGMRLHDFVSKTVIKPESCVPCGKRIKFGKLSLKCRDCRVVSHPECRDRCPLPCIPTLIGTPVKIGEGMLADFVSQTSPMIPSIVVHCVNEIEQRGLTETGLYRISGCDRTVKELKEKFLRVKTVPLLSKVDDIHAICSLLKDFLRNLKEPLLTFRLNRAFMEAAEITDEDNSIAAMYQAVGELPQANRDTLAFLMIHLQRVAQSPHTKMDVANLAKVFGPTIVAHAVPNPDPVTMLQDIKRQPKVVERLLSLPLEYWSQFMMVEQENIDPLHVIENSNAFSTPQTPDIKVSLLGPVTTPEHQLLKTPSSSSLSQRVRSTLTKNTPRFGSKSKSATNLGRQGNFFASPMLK
- protocolNotes: blockers of MgcRacGAP-driven Rac1 GTP hydrolysis – biochemical, ADP Hunter fluorescence, primary and confirmatory, confirmation (AID 624330);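 note: fluorescence reports GDP produced by GAP-driven GTP hydrolysis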
- testParameters: MgcRacGAP-stimulated Rac1 GTP hydrolysis, at 30 µM, hits give high values, GST-tagged Rac1 F28L mutant substrate
About 2,100 (0.62%) of roughly 340,000 compounds were called active. Not all results are given here. Results with a measured potency or affinity are listed apart.
assayReadout: inhibition (%)

[[record]]
molecule = "NNC(=O)CCN1CCN(C(c2ccccc2)c2ccccc2)CC1"
assayreadout = "inhibition"
unitslabel = "%"
recordedmeasurement = -8.98

[[record]]
molecule = "COc1ccc(/C=N\\NC(=O)CCN2CCN(c3ccccc3)CC2)cc1OC"
assayreadout = "inhibition"
unitslabel = "%"
recordedmeasurement = 7.5

[[record]]
molecule = "O=C(Nc1cccc(-n2cnnn2)c1)c1cc2ccccc2o1"
assayreadout = "inhibition"
unitslabel = "%"
recordedmeasurement = 0.98

[[record]]
molecule = "Nc1ccc(-c2cn3cccnc3n2)cc1"
assayreadout = "inhibition"
unitslabel = "%"
recordedmeasurement = -4.77

[[record]]
molecule = "CCN(Cc1cc(OC)c(OC)c(OC)c1)C(=S)Nc1cccc(SC)c1"
assayreadout = "inhibition"
unitslabel = "%"
recordedmeasurement = 8.44

[[record]]
molecule = "C[C@H](NC(=O)C1CCN(S(=O)(=O)c2ccccc2)CC1)C(=O)NC1CC1"
assayreadout = "inhibition"
unitslabel = "%"
recordedmeasurement = 4.17

[[record]]
molecule = "CC1CCC2(CC1)NC(=O)N(CC(=O)N1CC(C)CC(C)C1)C2=O (stereo unspecified)"
assayreadout = "inhibition"
unitslabel = "%"
recordedmeasurement = 3.96

[[record]]
molecule = "O=C(CCN1CCN(C(c2ccccc2)c2ccccc2)CC1)N/N=C/c1ccc(O)cc1O"
assayreadout = "inhibition"
unitslabel = "%"
recordedmeasurement = 30.9

[[record]]
molecule = "CCN(CC)c1ccc(/C=N/Nc2ccc(C)cc2)c(O)c1"
assayreadout = "inhibition"
unitslabel = "%"
recordedmeasurement = 11.6

[[record]]
molecule = "COc1ccc(Br)cc1/C=N/NC(=O)CN1CCCCC1"
assayreadout = "inhibition"
unitslabel = "%"
recordedmeasurement = 14.3

[[record]]
molecule = "C=CCc1cc(/C=N/n2cnnc2)cc(OCC)c1O"
assayreadout = "inhibition"
unitslabel = "%"
recordedmeasurement = 8.86

[[record]]
molecule = "CCN(CC)c1ccc(/C=N/NC(=O)c2ccco2)c(O)c1"
assayreadout = "inhibition"
unitslabel = "%"
recordedmeasurement = 9.97

[[record]]
molecule = "Cc1ccc(C(c2nnnn2C2CCCC2)N2CCN(c3nc4ccccc4s3)CC2)cc1 (stereo unspecified)"
assayreadout = "inhibition"
unitslabel = "%"
recordedmeasurement = 4.8

[[record]]
molecule = "CCN1CCN(C(=O)c2ccccc2Nc2ccc(SC(F)F)cc2)CC1"
assayreadout = "inhibition"
unitslabel = "%"
recordedmeasurement = 9.86

[[record]]
molecule = "CNS(=O)(=O)c1cc(N)ccc1C"
assayreadout = "inhibition"
unitslabel = "%"
recordedmeasurement = 5.24

[[record]]
molecule = "Cc1cccc(N(CC(=O)NCC2CCCO2)C(=O)CCC(=O)Nc2cc(C)on2)c1 (stereo unspecified)"
assayreadout = "inhibition"
unitslabel = "%"
recordedmeasurement = 4.72

[[record]]
molecule = "CC(=O)n1cc(/C=N/NC(=O)c2ccc([N+](=O)[O-])cc2)c2ccccc21"
assayreadout = "inhibition"
unitslabel = "%"
recordedmeasurement = 7.25

[[record]]
molecule = "Cc1ccc(C(=O)NCC(=O)Nc2ncccc2C)s1"
assayreadout = "inhibition"
unitslabel = "%"
recordedmeasurement = -8.48

[[record]]
molecule = "C/C(=N\\NC(=O)c1cccs1)C(C)(C)C"
assayreadout = "inhibition"
unitslabel = "%"
recordedmeasurement = -0.86

[[record]]
molecule = "COc1ccc(-n2nnnc2SCC(=O)c2ccc(O)c(O)c2)cc1"
assayreadout = "inhibition"
unitslabel = "%"
recordedmeasurement = 9.34

[[record]]
molecule = "O=C(O)CCCn1ccc2cc(S(=O)(=O)N3CCCC3)ccc21"
assayreadout = "inhibition"
unitslabel = "%"
recordedmeasurement = 4.17

